- ASSAY COMMENT: MTT cytotoxicity (CC50) in VERO cells
- Type: cell-based
- STUDY CONDITIONS: African green monkey (Cercopithecus aethiops)
REPORTED METRIC: CC50 at 48 h (µg/mL)
All answers are understood in µg/mL, so give the number only.

According to the records, this molecule O=c1c(O)c(-c2ccc(O)c(O)c2)oc2cc(O)cc(O)c12 [Quercetin, quercetin] displays CC50 at 48 h of 660

* * *

- ASSAY COMMENT: MTT cytotoxicity (CC50) in VERO cells
- Assay type: cell-based
- STUDY CONDITIONS: African green monkey (Cercopithecus aethiops); VERO cells, 48 h incubation, MTT; unit given, not in Table 1; read-out: Cytotoxic concentration 50% (CC50)
Kindly supply the reported CC50 at 48 h values for the records listed here.
Form entry: value (µg/mL) — number only.

CC50 at 48 h reported for this compound C[C@@H]1O[C@@H](O[C@H]2[C@H](Oc3cc(O)c4c(c3)O[C@H](c3ccc(O)cc3)CC4=O)O[C@H](CO)[C@@H](O)[C@@H]2O)[C@H](O)[C@H](O)[C@H]1O [Naringin, naringin] : 647

For reference, reported CC50 at 48 h for Oc1cc(O)c2c(c1)OC(c1ccc(O)c(O)c1)C(O)C2 (stereo not drawn) [Catechin, catechin] stands at 833

Record O=C(O)c1cc(O)c(O)c(O)c1 [Gallic Acid, gallic acid] , field CC50 at 48 h: 543

The origin of these recorded values is paper PMC6836419.
